Target: recombinant human PAI-1 (Homo sapiens, UniProt P05121)
Sequence (P05121 24-402): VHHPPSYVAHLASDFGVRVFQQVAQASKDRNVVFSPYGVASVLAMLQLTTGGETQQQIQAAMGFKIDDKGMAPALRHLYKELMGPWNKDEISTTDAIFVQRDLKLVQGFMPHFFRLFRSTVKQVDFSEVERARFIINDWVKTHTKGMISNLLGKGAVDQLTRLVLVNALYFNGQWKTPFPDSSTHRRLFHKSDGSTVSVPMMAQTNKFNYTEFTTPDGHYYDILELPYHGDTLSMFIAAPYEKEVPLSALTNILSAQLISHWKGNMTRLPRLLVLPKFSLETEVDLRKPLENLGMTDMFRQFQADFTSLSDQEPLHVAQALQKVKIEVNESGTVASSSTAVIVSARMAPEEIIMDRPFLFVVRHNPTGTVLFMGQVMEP
Assay: biochemical
Conditions: read-out: Inhibition Rate of PAI-1 Activity (%)
Assay endpoint: inhibition at 5 µM
Include the unit after the number when you answer.

Completed entries (count: 10):
{"Smiles notation": "CC(C)(C)c1ccc(COc2ccc(-c3ccc(OC(F)(F)F)cc3)cc2COCC(=O)O)cc1", "inhibition at 5 µM": "48%"}
{"Smiles notation": "CC(C)(Oc1cc(-c2ccc(OC(F)(F)F)cc2)ccc1OCCCCc1ccccc1)C(=O)O", "inhibition at 5 µM": "56%"}
{"Smiles notation": "Cc1cc(N(Cc2ccc(C(C)(C)C)cc2)C(=O)C(=O)O)ccc1-c1ccc(OC(F)(F)F)cc1", "inhibition at 5 µM": "59%"}
{"Smiles notation": "CC(C)(C)c1ccc(CN(C(=O)CCC(=O)O)c2ccc(-c3ccc(OC(F)(F)F)cc3)cc2)cc1", "inhibition at 5 µM": "38%"}
{"Smiles notation": "CC(C)(C)c1ccc(CN(C(=O)C(=O)O)c2ccc(-c3ccc(OC(F)(F)F)cc3)cc2)cc1", "inhibition at 5 µM": "80%"}
{"Smiles notation": "O=C(O)CCc1cc(-c2ccc(OC(F)(F)F)cc2)ccc1OCCCCCc1ccccc1", "inhibition at 5 µM": "47%"}
{"Smiles notation": "CC(C)(C)c1ccc(COc2cc(Oc3ccc(OC(F)(F)F)cc3)ccc2/C=C/C(=O)O)cc1", "inhibition at 5 µM": "27%"}
{"Smiles notation": "CC(C)(C)c1ccc(-c2ccc(N(Cc3ccc(Cl)cc3)C(=O)C(=O)O)cc2)cc1", "inhibition at 5 µM": "58%"}
{"Smiles notation": "CCCCCN(C(=O)C(=O)O)c1ccc(-c2ccc(OC(F)(F)F)cc2)cc1", "inhibition at 5 µM": "3%"}
{"Smiles notation": "CC(C)(C)CN(C(=O)C(=O)O)c1ccc(-c2ccc(OC(F)(F)F)cc2)cc1", "inhibition at 5 µM": "2%"}

So, CC(C)(C)Oc1ccc(N(CCCCc2ccccc2)C(=O)C(=O)O)cc1-c1ccc(OC(F)(F)F)cc1 ? Its inhibition at 5 µM was 68%

So, CC(C)(C)c1ccc(Oc2ccc(-c3ccc(OC(F)(F)F)cc3)cc2CCC(=O)O)c(CCC(=O)O)c1 ? Its inhibition at 5 µM was 67%

So, Cc1ccc(N(Cc2ccc(C(C)(C)C)cc2)C(=O)C(=O)O)cc1Oc1ccc(OC(F)(F)F)cc1 ? Its inhibition at 5 µM was 75%

So, CC(C)(C)c1ccc(CN(C(=O)C(=O)O)c2ccc(N3CCOCC3)c(-c3ccc(OC(F)(F)F)cc3)c2)cc1 ? Its inhibition at 5 µM was 75%

So, CC(C)(C)c1ccc(COc2ccc(-c3ccc(OC(F)(F)F)cc3)cc2OCCCC(=O)O)cc1 ? Its inhibition at 5 µM was 24%

* * *

Target: recombinant human PAI-1 (Homo sapiens, UniProt P05121)
Assay: Test Example 4: Human PAI-1 Inhibitory Activity (amount of PAI-1 bound to plate-coated one-chain tPA, ELISA)
Assay type: biochemical
Set-up: purchased Molecular Innovations, Inc
Conditions: human PAI-1 bound to tPA; Compound Concentration 1µM; read-out: Inhibition Rate of PAI-1 Activity (%)
Threshold check on inhibition at 1 µM: at or above 9% gives criterion met, strictly below gives criterion not met.

Worked cases, answers included:
{"Smiles notation": "CC(C)(C)c1ccc(CN(C(=O)C(=O)O)c2ccc(Oc3ccc(OC(F)(F)F)cc3)cc2C(F)(F)F)cc1", "Qualitative label": "criterion not met"}
{"Smiles notation": "CCCCOc1ccc(-c2ccc(OC(F)(F)F)cc2)cc1N(Cc1ccc(C(C)(C)C)cc1)C(=O)C(=O)O", "Qualitative label": "criterion met"}
{"Smiles notation": "CC(C)(C)c1ccc(Oc2cc(-c3ccc(OC(F)(F)F)cc3)ccc2CCC(=O)O)cc1", "Qualitative label": "criterion not met"}
{"Smiles notation": "CC(C)(C)c1ccc(CN(C(=O)C(=O)O)c2ccc(Cl)c(-c3ccc(OC(F)(F)F)cc3)c2)cc1", "Qualitative label": "criterion met"}
{"Smiles notation": "CC(C)(C)c1ccc(COc2ccc(-c3ccc(OC(F)(F)F)cc3)cc2CCC(=O)O)cc1", "Qualitative label": "criterion met"}

Next item in the queue.
## Task Assess whether reported inhibition at 1 µM for CCC(CC)Oc1ccc(N(Cc2ccc(C(C)(C)C)cc2)C(=O)C(=O)O)cc1-c1ccc(OC(F)(F)F)cc1 sits at 9% or higher.
## Result criterion met
